// provenance: patent US20220220095A1

Molecular target: hKv3.1b (Homo sapiens)
Construct: expressed in transfected cells
Assay: Automated whole-cell patch-clamp (QPatch-16x) on HEK-293 cells stably expressing hKv3.1b: shift of voltage threshold for channel activation
Assay type: cell-based
Details: maximum absolute shift of activation threshold to more hyperpolarized potentials at the tested concentrations (0.37, 1.11, 3.33, 10, 30 μM); HEK-293 hKv3.1b
Measurement Kind: Max Delta threshold (mV)

{"Mol Smiles": "Cc1cccc(S(=O)(=O)n2ccc(C(=O)NCc3cnn(C)c3)n2)c1", "System Tested": "hKv3.1b (Homo sapiens)", "Max Delta threshold / mV": 16}
{"Mol Smiles": "Cc1cnc(CNC(=O)c2ccn(S(=O)(=O)c3ccc(Cl)cc3)n2)cn1", "System Tested": "hKv3.1b (Homo sapiens)", "Max Delta threshold / mV": 25}
{"Mol Smiles": "Cc1ccccc1S(=O)(=O)n1ccc(C(=O)NCc2cnn(C)c2)n1", "System Tested": "hKv3.1b (Homo sapiens)", "Max Delta threshold / mV": 22}
{"Mol Smiles": "Cc1ccc(S(=O)(=O)n2ccc(C(=O)NCc3cnccn3)n2)cc1", "System Tested": "hKv3.1b (Homo sapiens)", "Max Delta threshold / mV": 23}
{"Mol Smiles": "COc1ccc(S(=O)(=O)n2ccc(C(=O)NCc3ccno3)n2)cc1", "System Tested": "hKv3.1b (Homo sapiens)", "Max Delta threshold / mV": 17}
{"Mol Smiles": "Cc1ccccc1S(=O)(=O)n1ccc(C(=O)NCc2ccn(C)n2)n1", "System Tested": "hKv3.1b (Homo sapiens)", "Max Delta threshold / mV": 16}
{"Mol Smiles": "Cc1cnc(CNC(=O)c2ccn(S(=O)(=O)c3ccc(C4CC4)cc3)n2)cn1", "System Tested": "hKv3.1b (Homo sapiens)", "Max Delta threshold / mV": 32}
{"Mol Smiles": "COc1ccc(S(=O)(=O)n2ccc(C(=O)NCc3cnc(C)cn3)n2)cc1C", "System Tested": "hKv3.1b (Homo sapiens)", "Max Delta threshold / mV": 23}

a: Cc1ccc(CNC(=O)c2ccn(S(=O)(=O)c3ccccc3C)n2)nc1
b: Cc1ccc(S(=O)(=O)n2ccc(C(=O)NCc3cnc(C)cn3)n2)c(C)c1
Parameter metric = Max Delta threshold. Return the lower-valued option from a and b . Write down the label of the entry you select.
a
(a: 18 mV, b: 29 mV)

P: Cc1cnc(CNC(=O)c2ccn(S(=O)(=O)c3ccc(F)cc3C)n2)cn1
Q: COc1ccc(S(=O)(=O)n2ccc(C(=O)NCc3ncc(C)o3)n2)cc1
Parameter metric = Max Delta threshold. Return the lower-valued option from P and Q . Write down the label of the entry you select.
Q

P: COc1ccc(S(=O)(=O)n2ccc(C(=O)NCc3cnc(C)cn3)n2)cc1
Q: COc1ccc(S(=O)(=O)n2ccc(C(=O)NCc3cncnc3)n2)cc1
Between the two listed entries P and Q , which has its Max Delta threshold at the higher number? Write down the label of the entry you select.
P

* * *

Molecular target: hKv3.1b (Homo sapiens, UniProt P48547)
Construct: expressed in transfected cells
Sequence (P48547 1-585 isoform P48547-2): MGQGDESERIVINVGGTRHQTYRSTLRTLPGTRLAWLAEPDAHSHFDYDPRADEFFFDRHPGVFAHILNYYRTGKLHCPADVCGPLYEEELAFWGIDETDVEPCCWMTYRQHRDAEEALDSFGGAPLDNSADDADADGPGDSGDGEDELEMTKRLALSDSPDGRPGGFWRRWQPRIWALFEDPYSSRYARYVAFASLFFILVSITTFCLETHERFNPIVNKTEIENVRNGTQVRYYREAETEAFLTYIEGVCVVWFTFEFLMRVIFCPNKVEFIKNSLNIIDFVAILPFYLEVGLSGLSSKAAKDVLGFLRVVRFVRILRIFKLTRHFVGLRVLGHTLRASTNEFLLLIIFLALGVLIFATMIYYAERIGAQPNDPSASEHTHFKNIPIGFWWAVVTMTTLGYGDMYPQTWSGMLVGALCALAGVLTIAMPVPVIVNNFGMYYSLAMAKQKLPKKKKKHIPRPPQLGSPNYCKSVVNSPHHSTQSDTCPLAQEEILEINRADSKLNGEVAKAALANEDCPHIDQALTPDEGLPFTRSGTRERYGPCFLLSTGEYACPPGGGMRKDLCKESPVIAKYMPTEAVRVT
Assay: Automated whole-cell patch-clamp (QPatch-16x) on HEK-293 cells stably expressing hKv3.1b: shift of voltage threshold for channel activation
Assay type: cell-based
Conditions: concentration needed to shift the threshold 5 mV, read out from fitted concentration response curve; HEK-293 hKv3.1b
Measurement Kind: ECdelta5mV (nM)

// worked examples, ECdelta5mV included
{"Compound": "Cc1ccc(S(=O)(=O)n2ccc(C(=O)NCc3ncn(C)n3)n2)cc1 [Compound 60]", "Unit Name": "nM", "ECdelta5mV": 2900}
{"Compound": "Cc1cnc(CNC(=O)c2ccn(S(=O)(=O)c3ccc(F)c(Cl)c3)n2)cn1 [Compound 69]", "Unit Name": "nM", "ECdelta5mV": 4600}
{"Compound": "Cc1ccc(S(=O)(=O)n2ccc(C(=O)NCc3cnc(C)nc3)n2)cc1 [Compound 50]", "Unit Name": "nM", "ECdelta5mV": 1700}
{"Compound": "COc1ccc(S(=O)(=O)n2ccc(C(=O)NCc3cocn3)n2)cc1 [Compound 12]", "Unit Name": "nM", "ECdelta5mV": 3800}
{"Compound": "Cc1ccc(S(=O)(=O)n2ccc(C(=O)NCc3ccn(C)n3)n2)cc1 [Compound 39]", "Unit Name": "nM", "ECdelta5mV": 1600}

P: COc1ccc(S(=O)(=O)n2ccc(C(=O)NCc3cccnc3)n2)cc1 [Compound 64]
Q: Cc1ccc(S(=O)(=O)n2ccc(C(=O)NCc3cnoc3)n2)cc1 [Compound 51]
Between the two listed entries P and Q , which has its ECdelta5mV at the higher number? Write down the label of the entry you select.
Q

* * *

Biological target: hKv3.1b (Homo sapiens)
Construct: expressed in transfected cells
Test: Automated whole-cell patch-clamp (QPatch-16x) on HEK-293 cells stably expressing hKv3.1b: shift of voltage threshold for channel activation
Assay type: cell-based
Conditions: concentration needed to shift the threshold 5 mV, read out from fitted concentration response curve; HEK-293 hKv3.1b
Measurement Kind: ECdelta5mV (nM)

{"Mol Smiles": "Cc1ccc(S(=O)(=O)n2ccc(C(=O)NCc3nc(C)cs3)n2)cc1", "Unit Name": "nM", "Assay Result": 2000}
{"Mol Smiles": "Cc1ccc(S(=O)(=O)n2ccc(C(=O)NCc3ccon3)n2)cc1", "Unit Name": "nM", "Assay Result": 2000}
{"Mol Smiles": "Cc1ccc(S(=O)(=O)n2ccc(C(=O)NCc3cnccn3)n2)cc1", "Unit Name": "nM", "Assay Result": 2000}

* * *

Biological target: hKv3.1b (Homo sapiens, UniProt P48547)
Construct: expressed in transfected cells
Assay: Automated whole-cell patch-clamp (QPatch-16x) on HEK-293 cells stably expressing hKv3.1b: shift of voltage threshold for channel activation
Format: cell-based
Conditions: maximum absolute shift of activation threshold to more hyperpolarized potentials at the tested concentrations (0.37, 1.11, 3.33, 10, 30 μM); HEK-293 hKv3.1b
Measurement Kind: Max Delta threshold (mV)

// worked examples, Max Delta threshold included
{"Molecule": "Cc1ccc(S(=O)(=O)n2ccc(C(=O)NCc3cscn3)n2)cc1 [Compound 52]", "System Tested": "hKv3.1b (Homo sapiens, UniProt P48547)", "Unit Name": "mV", "Max Delta threshold": 16}
{"Molecule": "Cc1cnc(CNC(=O)c2ccn(S(=O)(=O)c3ccccc3Cl)n2)cn1 [Compound 84]", "System Tested": "hKv3.1b (Homo sapiens, UniProt P48547)", "Unit Name": "mV", "Max Delta threshold": 12}

A: COc1ccc(S(=O)(=O)n2ccc(C(=O)NCc3cnccn3)n2)cc1C [Compound 4]
B: Cc1noc(CNC(=O)c2ccn(S(=O)(=O)c3ccccc3C)n2)n1 [Compound 23]
Parameter metric = Max Delta threshold. Return the lower-valued option from A and B . Write down the label of the entry you select.
B
(B: 13 mV, A: 21 mV)

A: Cc1ccc(S(=O)(=O)n2ccc(C(=O)NCc3nncs3)n2)cc1 [Compound 47]
B: Cc1ccc(S(=O)(=O)n2ccc(C(=O)NCc3cnc(C)nc3)n2)cc1 [Compound 50]
Parameter metric = Max Delta threshold. Return the lower-valued option from A and B . Write down the label of the entry you select.
A
(A: 16 mV, B: 24 mV)

a: Cc1cc(CNC(=O)c2ccn(S(=O)(=O)c3ccccc3C)n2)on1 [Compound 29]
b: Cc1cc(CNC(=O)c2ccn(S(=O)(=O)c3ccccc3)n2)on1 [Compound 14]
Parameter metric = Max Delta threshold. Return the lower-valued option from a and b . Write down the label of the entry you select.
b

* * *

Target: hKv3.1b (Homo sapiens, UniProt P48547)
Construct: expressed in transfected cells
Assay: Automated whole-cell patch-clamp (QPatch-16x) on HEK-293 cells stably expressing hKv3.1b: shift of voltage threshold for channel activation
Type: cell-based
Conditions: maximum absolute shift of activation threshold to more hyperpolarized potentials at the tested concentrations (0.37, 1.11, 3.33, 10, 30 μM); HEK-293 hKv3.1b
Measurement Kind: Max Delta threshold (mV)

{"Mol Smiles": "Cc1cccc(S(=O)(=O)n2ccc(C(=O)NCc3cc(C)no3)n2)c1", "Assay Result": 17}

a: COc1ccc(S(=O)(=O)n2ccc(C(=O)NCc3cocn3)n2)cc1
b: Cc1ccc(S(=O)(=O)n2ccc(C(=O)NCc3ncc(C)cn3)n2)cc1
Parameter metric = Max Delta threshold. Return the lower-valued option from a and b . Write down the label of the entry you select.
a
(a: 16 mV, b: 23 mV)

P: COc1ccc(S(=O)(=O)n2ccc(C(=O)NCc3cnc(C)nc3)n2)cc1
Q: Cc1ccc(S(=O)(=O)n2cc(C)c(C(=O)NCc3cnc(C)cn3)n2)cc1
Parameter metric = Max Delta threshold. Return the lower-valued option from P and Q . Write down the label of the entry you select.
Q
(Q: 12 mV, P: 29 mV)
